All figures here come from ChEMBL document CHEMBL4177566.

# EXPERIMENTAL SYSTEM: Protein deacetylase HDAC6 (Homo sapiens, UniProt Q9UBN7)
# Sequence (Q9UBN7 whole entry): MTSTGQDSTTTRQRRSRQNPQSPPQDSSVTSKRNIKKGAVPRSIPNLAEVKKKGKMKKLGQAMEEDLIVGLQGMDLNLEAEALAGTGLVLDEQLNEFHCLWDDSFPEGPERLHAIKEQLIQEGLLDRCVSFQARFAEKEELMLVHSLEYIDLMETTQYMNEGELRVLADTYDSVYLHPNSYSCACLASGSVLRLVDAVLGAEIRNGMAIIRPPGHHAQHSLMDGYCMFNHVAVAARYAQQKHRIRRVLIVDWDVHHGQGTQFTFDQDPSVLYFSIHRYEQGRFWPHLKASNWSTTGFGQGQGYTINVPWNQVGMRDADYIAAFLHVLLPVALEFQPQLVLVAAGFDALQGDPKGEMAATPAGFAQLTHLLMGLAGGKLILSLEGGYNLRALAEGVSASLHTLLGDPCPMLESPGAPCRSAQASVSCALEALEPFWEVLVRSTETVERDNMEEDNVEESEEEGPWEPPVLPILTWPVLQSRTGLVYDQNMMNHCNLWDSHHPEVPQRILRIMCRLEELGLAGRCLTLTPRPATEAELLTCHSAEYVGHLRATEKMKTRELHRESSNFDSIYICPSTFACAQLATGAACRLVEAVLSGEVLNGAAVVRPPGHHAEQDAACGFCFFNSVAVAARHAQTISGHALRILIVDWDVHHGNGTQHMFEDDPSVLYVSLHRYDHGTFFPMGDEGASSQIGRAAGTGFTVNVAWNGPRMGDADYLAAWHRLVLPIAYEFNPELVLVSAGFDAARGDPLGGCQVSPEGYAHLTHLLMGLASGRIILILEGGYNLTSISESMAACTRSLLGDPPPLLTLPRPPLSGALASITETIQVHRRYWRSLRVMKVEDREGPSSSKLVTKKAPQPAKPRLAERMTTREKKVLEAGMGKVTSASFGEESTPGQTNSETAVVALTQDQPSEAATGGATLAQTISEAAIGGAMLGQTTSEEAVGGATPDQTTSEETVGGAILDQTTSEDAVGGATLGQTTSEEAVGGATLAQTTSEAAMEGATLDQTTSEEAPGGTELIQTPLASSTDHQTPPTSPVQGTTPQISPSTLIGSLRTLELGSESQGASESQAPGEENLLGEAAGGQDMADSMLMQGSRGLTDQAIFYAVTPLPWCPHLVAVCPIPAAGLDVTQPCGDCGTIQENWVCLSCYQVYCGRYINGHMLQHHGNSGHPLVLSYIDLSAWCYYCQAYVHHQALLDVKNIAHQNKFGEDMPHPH
# ASSAY SUMMARY: Inhibition of recombinant human His-tagged HDAC6 expressed in baculovirus infected insect cells preincubated with enzyme followed by flour de lys-green substrate addition measured after 1 hr by fluorescence assay
TEST READOUT: IC50 (nM)
Use nM as the unit, but write only the number.

## Task Which IC50 value is on record for `O=C(CCCCCCC(=O)Nc1ccc(N(CCCl)CCCl)cc1)NO` ?
## Result 620

----------
Record form. Attribute: IC50. Fill in for each entry.
# System: A549
# ASSAY SUMMARY: Antiproliferative activity against human A549 cells after 72 hrs by CCK8 assay
# Type: functional, cell-based
# RECORDED CONDITIONS: A549, 72 h
Use µM as the unit, but write only the number.

## Task Item: `O=C(CCCCCCC(=O)Nc1ccc(N(CCCl)CCCl)cc1)NO` Test system: A549 Read-out: IC50 Value: ?
## Result 4.4

## Task Item: `O=C(O)CCCc1ccc(N(CCCl)CCCl)cc1` Test system: A549 Read-out: IC50 Value: ?
## Result 22.2

----------
# System: HCT-116
# ASSAY SUMMARY: Antiproliferative activity against human HCT116 cells after 72 hrs by CCK8 assay
# Type: functional, cell-based
# RECORDED CONDITIONS: HCT-116, 72 h
TEST READOUT: pIC50
Bear in mind: pIC50 is minus log10 of a mol/L concentration; give just that figure.

## Task Which pIC50 value is on record for O=C(O)CCCc1ccc(N(CCCl)CCCl)cc1 [CHLORAMBUCIL] ?
## Result 4.24

## Task Which pIC50 value is on record for `O=C(CCCCCCC(=O)Nc1ccc(N(CCCl)CCCl)cc1)NO` ?
## Result 5.49

----------
# EXPERIMENTAL SYSTEM: UniProt Q92769
# Sequence (Q92769 whole entry): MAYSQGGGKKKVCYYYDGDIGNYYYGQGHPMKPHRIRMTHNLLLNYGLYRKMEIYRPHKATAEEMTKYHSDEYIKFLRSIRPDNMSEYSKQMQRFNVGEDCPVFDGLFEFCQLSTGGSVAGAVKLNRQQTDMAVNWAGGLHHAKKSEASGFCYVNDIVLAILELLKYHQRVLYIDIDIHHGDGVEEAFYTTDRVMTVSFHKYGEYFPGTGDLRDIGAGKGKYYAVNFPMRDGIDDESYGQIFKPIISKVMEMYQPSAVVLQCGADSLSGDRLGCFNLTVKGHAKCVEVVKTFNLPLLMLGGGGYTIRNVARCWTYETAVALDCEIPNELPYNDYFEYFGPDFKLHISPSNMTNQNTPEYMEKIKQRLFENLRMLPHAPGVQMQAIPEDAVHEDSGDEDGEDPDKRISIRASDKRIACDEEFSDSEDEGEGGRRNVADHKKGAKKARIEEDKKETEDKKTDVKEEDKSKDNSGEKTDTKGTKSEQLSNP
# ASSAY SUMMARY: Inhibition of recombinant human HDAC2 preincubated with enzyme followed by flour de lys-green substrate addition measured after 1 hr by fluorescence assay
TEST READOUT: IC50 (nM)
Use nM as the unit, but write only the number.

## Task Item: `O=C(CCCCCCC(=O)Nc1ccc(N(CCCl)CCCl)cc1)NO` Test system: UniProt Q92769 Read-out: IC50 Value: ?
## Result 240
